system: ACHN; experiment: NCI tumour cell line growth inhibition, 48 h
Active and inactive are the calls of the source. No stated cut-off is given here; in the data, active = GI50 up to about 1.1 µM and inactive = higher.
measured_property: GI50

Lab note: need GI50 with ACHN for entry `COc1ccc(-c2cc(Cc3cccs3)c(=O)[nH]n2)cc1` , please look it up. 32.7 µM (inactive)

###

tested on: HOP-92; assay: NCI tumour cell line growth inhibition, 48 h
The source made the active and inactive calls. Rule as the data show it: active = GI50 up to about 1.1 µM and inactive = higher.
One label from this list, please: YES = active, NO = inactive

Each compound tested received a call. Report the one for `O=c1ccn2n1Cc1ccccc1C2` . NO

###

tested on: HT-29; experiment: NCI tumour cell line growth inhibition, 48 h
Active and inactive are the calls of the source. Cut-off read from the data, not from the text of the source: active = GI50 up to about 1.1 µM and inactive = higher.
One label from this list, please: true for active, false for inactive

Previously resolved entries follow.
INSERT INTO results (compound, tested_on, assigned_class) VALUES
  ('CCOC(=O)c1sc2nc(SC)nc(Nc3ccc4c(c3)OCCCO4)c2c1N', 'HT-29', 'false'),
  ('COc1ccc2c(C=O)c3n(c(=O)c2c1OC)CCc1cc2c(cc1-3)OCO2', 'HT-29', 'false'),
  ('Nn1c(S)nnc1NNC(=O)C(=O)Nc1cc(Cl)c(Cl)cc1Cl', 'HT-29', 'false'),
  ('CCOC(CBr)OC1C(=O)OCC1(C)C (stereo not drawn)', 'HT-29', 'false'),
  ('CC(C)=CC1C[C@H](C2CC=C3C2(C)CCC2[C@@]3(C)C(=O)CC3[C@]2(C)C=CC(=O)[C@]3(C)CO)CO1 (stereo partly drawn)', 'HT-29', 'false');

Each compound tested received a call. Report the one for `O=c1n(Cc2ccccc2)c(=O)n2c(=O)n(Cc3ccccc3)c(=O)n12` . false

Further, for `O=C(Nc1noc(-c2ccccc2)n1)c1ccccc1CNc1noc(-c2ccccc2)n1` ? false

Further, for `O=C(CSc1nnc(-c2ccccn2)s1)N/N=C/c1ccc([N+](=O)[O-])cc1` ? false

Further, for O=C1C(Cl)N(c2c(Cl)cccc2Cl)C1c1c[nH]c2ccccc12 (stereo not drawn) ? false

Further, for `CC(C)(CCC(C)(C)c1ccccc1)c1ccccc1` ? false

Further, for CC(=O)OCC1OC(O[C@@H]2C[C@H]3C(C)(C)[C@H](OC(C)=O)CC[C@]3(C)[C@H]3CC[C@]4(C)C(=CC[C@H]4[C@@H](C)C[C@@H](O)[C@H](O)C(C)(C)O)[C@@]32C)C(O)C(O)C1O (stereo partly drawn) ? false
